- System: Fer (mouse);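 note: 11-residue human phosphosite peptides and single-mutation variants displayed on the E. coli surface, counted by deep sequencing, each peptide's frequency after selection divided by its frequency in the unselected input library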;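 note: frequency after pTyr selection over input frequency; kinase dosed for 20-30% of maximal phosphorylation in three min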
- ASSAY_TEXT: phosphorylation enrichment, bacterial display (enrichment ratio); higher = better substrate or ligand; peptides without Tyr show the background
We begin with a simple list: items and their reported phosphorylation enrichment.

{"RESIDUES": "LEISPYMLSGP [LRRK2_Y1718_R1723P]", "phosphorylation enrichment": 2.63}
{"RESIDUES": "GQSKGYRPKLF [SIPA1L3_Y1376_YF]", "phosphorylation enrichment": 0.342}
{"RESIDUES": "WPLKWYAPECI [ZAP70_Y506]", "phosphorylation enrichment": 0.598}
{"RESIDUES": "MNLLGYRHVRS [CHST4_Y359]", "phosphorylation enrichment": 0.409}
{"RESIDUES": "NNHGNYIVLLG [ETFDH_Y172_R175L]", "phosphorylation enrichment": 0.363}
{"RESIDUES": "GGQDVYGDFGG [Probound]", "phosphorylation enrichment": 0.498}
{"RESIDUES": "GRVYVYRLSEQ [ITGAE_Y551]", "phosphorylation enrichment": 0.508}
{"RESIDUES": "LLVVVYKFRCF [PSEN1_Y154_L153V_YF]", "phosphorylation enrichment": 0.471}
{"RESIDUES": "LSERGYSFVTT [ACTA2_Y200_T196S]", "phosphorylation enrichment": 1.06}
{"RESIDUES": "FDRREYSRFEK [ITGB7_Y758_YF]", "phosphorylation enrichment": 0.392}
{"RESIDUES": "RVQKRYIFDNV [RCN1_Y115]", "phosphorylation enrichment": 0.381}
{"RESIDUES": "SQQTYCRVSNM [ABCD1_Y181_Y181C]", "phosphorylation enrichment": 0.526}
{"RESIDUES": "IVAREYYSEAD [CAMK2A_Y106]", "phosphorylation enrichment": 0.586}
{"RESIDUES": "CEHRGFLYLAI [TEK_Y897_Y897F]", "phosphorylation enrichment": 0.545}
{"RESIDUES": "TNRSVYFKPSL [NUP153_Y382]", "phosphorylation enrichment": 0.433}
{"RESIDUES": "SVTYTYSPALN [TP53_Y126_C124Y]", "phosphorylation enrichment": 0.621}
{"RESIDUES": "SVQIVYKPVDL [MAPT_Y627]", "phosphorylation enrichment": 0.467}
{"RESIDUES": "YLENYYDLEKD [MMP3_Y42_K45E]", "phosphorylation enrichment": 0.781}
{"RESIDUES": "EQFELHCEMGS [CBL_Y371_Y371H_YF]", "phosphorylation enrichment": 0.577}
{"RESIDUES": "VFDMLYQVANL [USP24_Y1087_L1089V]", "phosphorylation enrichment": 11.7}
{"RESIDUES": "RVKTPYSLKRW [BMPR2_Y979]", "phosphorylation enrichment": 0.756}
{"RESIDUES": "DYNPNYCFAGK [ALK_Y1096]", "phosphorylation enrichment": 0.735}
{"RESIDUES": "FASALYGQRRS [FGF11_Y162_R163G_YF]", "phosphorylation enrichment": 0.505}
{"RESIDUES": "VHYLVYHHHHH [CACNA1H_Y519_H516Y]", "phosphorylation enrichment": 0.678}
{"RESIDUES": "QKNVSYVSRVS [TASOR_Y1043_T1046R]", "phosphorylation enrichment": 0.764}
{"RESIDUES": "KKLHKYNTQFQ [PIK3R1_Y452_E451K]", "phosphorylation enrichment": 0.503}
{"RESIDUES": "FRQNVYIPGSN [PCDHGA1_Y895_YF]", "phosphorylation enrichment": 0.402}
{"RESIDUES": "STFVPYEIKVQ [L1CAM_Y784]", "phosphorylation enrichment": 0.527}
{"RESIDUES": "SAASSYSFSDL [EMD_Y59]", "phosphorylation enrichment": 0.478}
{"RESIDUES": "KDQGGYAMHQD [MAPT_Y29_T30A]", "phosphorylation enrichment": 0.419}
{"RESIDUES": "KPLMPYMRYSR [SMARCE1_Y73]", "phosphorylation enrichment": 0.384}
{"RESIDUES": "LEQDEYALRSH [HADHB_Y244]", "phosphorylation enrichment": 0.669}
{"RESIDUES": "TLGPFYPSLLF [CRYAA_Y18_R21L]", "phosphorylation enrichment": 0.544}
{"RESIDUES": "FPAVGYHKPHI [IDS_Y225_L221P]", "phosphorylation enrichment": 0.436}
{"RESIDUES": "YSSLGYPLPEG [ZSWIM4_Y87_P89L]", "phosphorylation enrichment": 0.687}
{"RESIDUES": "TFGQVYKGRHV [TNIK_Y40_YF]", "phosphorylation enrichment": 0.33}
{"RESIDUES": "DEEDFYQGSME [ASCC1_Y36]", "phosphorylation enrichment": 0.798}
{"RESIDUES": "FEELVYETVRV [FSHB_Y76_K72E]", "phosphorylation enrichment": 12.8}
{"RESIDUES": "HELFVYKCDEN [DOCK3_Y548_YF]", "phosphorylation enrichment": 1.15}
{"RESIDUES": "PVFIKYLPEWT [PSEN1_Y240_L235P]", "phosphorylation enrichment": 0.759}
{"RESIDUES": "DHKRQYELLKL [KIF4B_Y684_R680H]", "phosphorylation enrichment": 0.505}
{"RESIDUES": "FHKALYTVRSF [PDE6C_Y266_YF]", "phosphorylation enrichment": 0.394}
{"RESIDUES": "PQQLWYTHKKK [UBTF_Y207_E210K]", "phosphorylation enrichment": 0.598}
{"RESIDUES": "GDFLSYREFHL [ERBIN_Y1107_S1112L_YF]", "phosphorylation enrichment": 0.737}
{"RESIDUES": "LVSCTYQLARR [FGFR2_Y608_G613R]", "phosphorylation enrichment": 0.896}
{"RESIDUES": "DKMEAYNIDET [TEKT4_Y210]", "phosphorylation enrichment": 0.584}
{"RESIDUES": "SFHCSYSEIKD [DCLRE1C_Y322_S320C]", "phosphorylation enrichment": 0.639}
{"RESIDUES": "CNNFIYGGCRG [SPINT2_Y163]", "phosphorylation enrichment": 0.371}
{"RESIDUES": "GIVEDYRPPFF [ACVRL1_Y421_YF]", "phosphorylation enrichment": 0.443}
{"RESIDUES": "TETGRYEILTE", "phosphorylation enrichment": 0.354}
{"RESIDUES": "KFMVGYEMLAQ [GALT_Y339]", "phosphorylation enrichment": 0.511}
{"RESIDUES": "EQKRFYNAMKK [SCN5A_Y1495_K1493R_YF]", "phosphorylation enrichment": 0.35}
{"RESIDUES": "LLSVAYKNVVR [YWHAZ_Y48_G53R]", "phosphorylation enrichment": 0.55}
{"RESIDUES": "CIILLYIFLKN [STXBP1_Y411_R406C]", "phosphorylation enrichment": 0.406}
